Field: pKi. Provide a value for each of the molecules that follow.
Molecular target: UniProt Q63931
Sequence (Q63931 whole entry): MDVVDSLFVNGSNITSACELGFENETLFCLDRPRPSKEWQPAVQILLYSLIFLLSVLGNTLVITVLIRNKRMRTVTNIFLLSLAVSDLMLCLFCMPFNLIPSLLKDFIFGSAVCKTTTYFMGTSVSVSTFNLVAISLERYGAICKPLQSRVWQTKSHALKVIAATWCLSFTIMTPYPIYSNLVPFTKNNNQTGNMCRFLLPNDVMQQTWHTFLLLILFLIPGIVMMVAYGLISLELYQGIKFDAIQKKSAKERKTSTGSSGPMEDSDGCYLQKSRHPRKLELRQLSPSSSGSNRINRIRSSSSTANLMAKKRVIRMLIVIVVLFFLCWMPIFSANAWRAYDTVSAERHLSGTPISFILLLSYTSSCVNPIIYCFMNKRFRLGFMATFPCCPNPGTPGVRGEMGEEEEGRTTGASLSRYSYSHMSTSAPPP
pKi: −log10 of the molar value. Non-standard residues stand in square brackets, D forms with d. Residues, ends and D or L forms follow the SMILES beside them. *: point of attachment. NMeNle = CCCC[C@H](NC)C(=O)O; Boc = CC(C)(C)OC(=O)*

Report pKi for CCCC[C@@H](C(=O)N[C@@H](CC(=O)O)C(=O)N[C@@H](Cc1ccccc1)C(N)=O)N(C)C(=O)[C@H](Cc1c[nH]c2ccccc12)NC(=O)OC(C)(C)C (Boc-W[NMeNle]DF-NH2) tested on UniProt Q63931.
< 5.30

Report pKi for CSCC[C@H](NC(=O)[C@@H](N)Cc1c[nH]c2ccccc12)C(=O)N[C@@H](CC(=O)O)C(=O)N[C@@H](Cc1ccccc1)C(N)=O tested on UniProt Q63931.
4.44

Report pKi for C[C@]1(Cc2c[nH]c3ccccc23)NC(=O)CCCCCCC[C@@H](C(=O)N[C@@H](CC(=O)O)C(=O)N[C@@H](Cc2ccccc2)C(N)=O)NC1=O tested on UniProt Q63931.
< 5.00

---

Molecular target: Gastrin/cholecystokinin type B receptor (Rattus norvegicus)
Sequence (P30553 whole entry): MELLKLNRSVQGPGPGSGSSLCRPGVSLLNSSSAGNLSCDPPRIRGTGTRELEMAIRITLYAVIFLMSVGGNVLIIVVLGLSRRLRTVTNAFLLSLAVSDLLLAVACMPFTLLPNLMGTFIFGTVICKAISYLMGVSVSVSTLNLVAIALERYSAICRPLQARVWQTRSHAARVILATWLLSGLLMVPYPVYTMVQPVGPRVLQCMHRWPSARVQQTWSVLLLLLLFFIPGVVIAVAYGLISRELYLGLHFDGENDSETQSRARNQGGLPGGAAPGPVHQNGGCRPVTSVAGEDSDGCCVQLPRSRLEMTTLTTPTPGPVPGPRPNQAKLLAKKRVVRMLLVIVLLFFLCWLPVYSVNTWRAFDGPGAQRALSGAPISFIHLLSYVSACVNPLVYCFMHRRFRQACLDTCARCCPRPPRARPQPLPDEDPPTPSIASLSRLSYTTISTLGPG
Experiment: Affinity to inhibit [3H]pCCK-8 specific binding on rat brain Cholecystokinin type B receptor expressed in CHO cells
Type: cell-based
Conditions: cho
recordedEndpoint: Ki (nM)
Supply the numeric figure in nM, leaving out any unit text.

Fill blank: measured Ki of the compound C[C@]1(Cc2c[nH]c3ccccc23)NC(=O)CCCCCCCC[C@@H](C(=O)N[C@@H](CC(=O)O)C(=O)N[C@@H](Cc2ccccc2)C(N)=O)NC1=O is ____.
23

Fill blank: measured Ki of the compound C[C@]1(Cc2c[nH]c3ccccc23)NC(=O)CCCCCC[C@@H](C(=O)N[C@@H](CC(=O)O)C(=O)N[C@@H](Cc2ccccc2)C(N)=O)NC1=O is ____.
142

Fill blank: measured Ki of the compound C[C@]1(Cc2c[nH]c3ccccc23)NC(=O)CCCCSSCC[C@@H](C(=O)N[C@@H](CC(=O)O)C(=O)N[C@@H](Cc2ccccc2)C(N)=O)NC1=O is ____.
80
